Could you please report measured phosphorylation enrichment for the items listed next?
Molecular target: Hck (UniProt P08631)
Sequence (P08631 whole entry, looked up): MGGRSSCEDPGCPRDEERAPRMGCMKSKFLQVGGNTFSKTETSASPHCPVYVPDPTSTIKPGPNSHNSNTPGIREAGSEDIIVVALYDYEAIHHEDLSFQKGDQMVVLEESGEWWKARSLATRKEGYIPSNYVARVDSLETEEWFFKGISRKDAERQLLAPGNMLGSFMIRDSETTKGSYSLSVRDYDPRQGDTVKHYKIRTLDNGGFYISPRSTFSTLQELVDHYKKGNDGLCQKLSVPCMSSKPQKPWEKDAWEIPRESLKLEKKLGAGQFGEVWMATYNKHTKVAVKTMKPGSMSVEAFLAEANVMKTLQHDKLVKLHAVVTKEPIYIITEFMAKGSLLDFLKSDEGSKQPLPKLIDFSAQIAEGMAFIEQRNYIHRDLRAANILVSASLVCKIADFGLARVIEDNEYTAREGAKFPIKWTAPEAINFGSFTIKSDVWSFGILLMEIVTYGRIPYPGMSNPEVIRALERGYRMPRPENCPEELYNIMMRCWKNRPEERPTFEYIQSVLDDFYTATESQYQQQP
Experiment: phosphorylation enrichment, bacterial display (enrichment ratio); higher = better substrate or ligand; peptides without Tyr show the background;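 further: 11-residue human phosphosite peptides and single-mutation variants displayed on the E. coli surface, counted by deep sequencing, each peptide's frequency after selection divided by its frequency in the unselected input library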;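 further: frequency after pTyr selection over input frequency; kinase dosed for 20-30% of maximal phosphorylation in three min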
Answers are plain numbers.

NAGAFYVLSTL [FLVCR2_Y325_A326V]	0.476
DVLEFYNSKKT [PAK1_Y131]	0.518

# input for lookup
Input: I am curious: what phosphorylation enrichment value has been reported for NPQKSCFIRLY [WAS_Y83_Y83C] ?
Output: 0.494

----------
Could you please report measured phosphorylation enrichment for the items listed next?
Tested on: AncSZ
Assay: phosphorylation enrichment, bacterial display (enrichment ratio); higher = better substrate or ligand; peptides without Tyr show the background
Numbers only.

Go through the list and state phosphorylation enrichment for each entry.
1. EALDFCGEVRT [PTEN_Y155_Y155C]
2. GMRHGYGVRQS [JPH2_Y141]
3. PIYLYYLMDLS [ITGB2_Y131_D128Y]

Output:
1. 1.31
2. 0.451
3. 4.09

Go through the list and state phosphorylation enrichment for each entry.
1. EIVFVYVKKRS [DNAI2_Y7_YF]
2. RTLSEYARRHV [RERE_Y1259_P1262R]
3. LPIQTYSALNF [DES_Y423]
4. RHLREYQDLLN [DES_Y388]
5. PSAELYSYALP [PDGFRB_Y716_N718Y]
6. EEGRVYVYHLS [ITGAE_Y549_R552H]

Output:
1. 0.995
2. 0.613
3. 1.01
4. 0.93
5. 3.71
6. 1.13
